The entries below are paired with their reported DC50.
testTarget: SMARCA2 (Homo sapiens)
procedureDetails: HiBiT assay for protein degradation, Hela SMARCA2-HiBiT cells (A series)
Format: cell-based
Parameters: Hela cells were genetically modified via CRISPR/Cas9 to fuse HiBiT to the carboxy terminus of SMARCA2; host or cells: HeLa (CRISPR/Cas9 HiBiT knock-in)
measurementParameters: Hela SMARCA2-HiBiT cells, 24 hours treatment; read-out: SMARC A2 Hela HiBit DC50
Experimental: Hela cells were genetically modified via CRISPR/Cas9 to fuse HiBiT to the carboxy terminus of SMARCA2 (Promega CS302365) or SMARCA4 (Promega CS3023225). Cells were cultured in DMEM containing 10% FBS and 1% (Vol:Vol) penicillin-streptomycin. […] At the end of experiment, levels of SMARCA2 or SMARCA4 expression were assessed with Nano-Glo® HiBiT Lytic Detection Assay (Promega N3050). IC50 was obtained using the GraphPad Prism data analysis software.

// known answers, use as guide
smilesCode	testResult
Cc1ncsc1-c1ccc([C@H](CC(=O)N2CCC(N3CCC(c4ccc5c(c4)-n4c(nc(=O)c6c(Cl)cccc64)C54CCCCC4)CC3)CC2)NC(=O)[C@@H]2C[C@@H](O)CN2C(=O)[C@@H](n2cc(C3CC3)nn2)C(C)(C)C)cc1	0.01 to 0.1 µM
Cc1ncsc1-c1ccc([C@H](CCCCCN2CCC(c3ccc4c(c3)-n3c(nc(=O)c5c(Br)cccc53)C43CCCCC3)CC2)NC(=O)[C@H]2C[C@H](O)CN2C(=O)[C@@H](n2cc(C3CC3)nn2)C(C)(C)C)cc1	< 0.1 µM
Cc1ncsc1-c1ccc([C@H](CN2CCC(C(=O)O)CC2)NC(=O)[C@@H]2C[C@@H](O)CN2C(=O)[C@@H](n2cc([C@H]3CC[C@H](CN4CCC(c5ccc6c(c5)-n5c(nc(=O)c7c(Cl)cccc75)C65CCCCC5)CC4)CC3)nn2)C(C)(C)C)cc1	0.1 to 1 µM

## Task Please provide the recorded DC50 for Cc1ncsc1-c1ccc([C@H](CC(=O)N2CCC3(CCC(CN4CCC(c5ccc6c(c5)-n5c(nc(=O)c7c(Br)cccc75)C65CCCCC5)CC4)CC3)CC2)NC(=O)[C@@H]2C[C@@H](O)CN2C(=O)[C@@H](n2cc(C3CC3)nn2)C(C)(C)C)cc1 , tested on SMARCA2 (Homo sapiens).
## Result < 0.01 µM

###

Parameter Dmax: see the listing below.
testTarget: SMARCA2 (Homo sapiens, UniProt P51531)
Sequence (P51531 whole entry): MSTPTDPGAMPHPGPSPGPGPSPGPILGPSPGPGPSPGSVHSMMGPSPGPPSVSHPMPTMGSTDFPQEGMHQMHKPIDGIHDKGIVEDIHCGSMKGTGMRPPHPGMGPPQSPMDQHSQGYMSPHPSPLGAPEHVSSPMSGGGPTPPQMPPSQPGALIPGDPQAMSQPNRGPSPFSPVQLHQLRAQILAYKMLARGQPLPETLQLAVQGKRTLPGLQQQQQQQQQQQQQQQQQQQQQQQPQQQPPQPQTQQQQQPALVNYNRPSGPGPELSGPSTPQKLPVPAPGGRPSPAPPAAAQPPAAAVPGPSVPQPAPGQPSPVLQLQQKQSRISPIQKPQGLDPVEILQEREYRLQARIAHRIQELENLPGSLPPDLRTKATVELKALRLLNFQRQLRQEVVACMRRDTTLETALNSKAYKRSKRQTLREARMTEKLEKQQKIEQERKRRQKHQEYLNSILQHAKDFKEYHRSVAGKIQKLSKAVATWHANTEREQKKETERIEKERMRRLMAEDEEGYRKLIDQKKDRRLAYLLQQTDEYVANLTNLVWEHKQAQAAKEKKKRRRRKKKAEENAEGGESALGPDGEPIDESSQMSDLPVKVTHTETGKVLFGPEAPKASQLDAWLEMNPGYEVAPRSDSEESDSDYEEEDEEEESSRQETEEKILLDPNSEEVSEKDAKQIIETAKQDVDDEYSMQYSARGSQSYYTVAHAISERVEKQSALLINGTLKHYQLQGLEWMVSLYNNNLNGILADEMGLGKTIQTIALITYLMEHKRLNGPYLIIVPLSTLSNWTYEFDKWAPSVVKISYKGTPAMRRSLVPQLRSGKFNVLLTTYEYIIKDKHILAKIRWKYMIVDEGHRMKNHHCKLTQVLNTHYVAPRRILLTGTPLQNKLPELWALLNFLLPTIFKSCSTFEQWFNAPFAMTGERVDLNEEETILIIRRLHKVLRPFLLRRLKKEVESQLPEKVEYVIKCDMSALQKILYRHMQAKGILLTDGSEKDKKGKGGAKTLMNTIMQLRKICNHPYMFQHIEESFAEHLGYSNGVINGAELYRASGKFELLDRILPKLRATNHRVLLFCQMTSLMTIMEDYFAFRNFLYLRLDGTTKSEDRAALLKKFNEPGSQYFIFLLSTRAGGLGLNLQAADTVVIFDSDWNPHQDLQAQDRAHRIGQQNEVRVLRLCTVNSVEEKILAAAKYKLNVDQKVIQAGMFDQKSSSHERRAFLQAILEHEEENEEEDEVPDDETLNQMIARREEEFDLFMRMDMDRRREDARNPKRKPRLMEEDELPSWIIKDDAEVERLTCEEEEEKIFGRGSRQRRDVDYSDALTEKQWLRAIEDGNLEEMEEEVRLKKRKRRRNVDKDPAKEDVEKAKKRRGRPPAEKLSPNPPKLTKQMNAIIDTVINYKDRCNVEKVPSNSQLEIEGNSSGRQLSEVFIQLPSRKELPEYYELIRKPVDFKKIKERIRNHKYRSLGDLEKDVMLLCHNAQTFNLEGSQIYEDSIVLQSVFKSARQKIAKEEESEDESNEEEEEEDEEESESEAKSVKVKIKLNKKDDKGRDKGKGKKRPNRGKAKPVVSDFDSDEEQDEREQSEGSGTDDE
procedureDetails: HiBit assay in engineered HT1080 CRISPR knock-in cell, 6 hrs (B series), SMARCA2
Format: cell-based
measurementParameters: HT-1080, HT1080 CRISPR knock-in cells, 6 hrs incubation; read-out: SMARC A2 HT1080 HiBit Dmax (%)

molecule	testTarget	Dmax
Cc1ncsc1-c1ccc([C@H](CN2CCOCC2)NC(=O)[C@@H]2C[C@@H](O)CN2C(=O)[C@H](c2cc(N3CCC(c4ccc5c(c4)C(C)(C)c4nc(=O)c6c(Cl)cccc6n4-5)CC3)no2)C(C)C)cc1	SMARCA2 (Homo sapiens, UniProt P51531)	> 90%

## Task Which Dmax is listed for Cc1ncsc1-c1ccc([C@H](C)NC(=O)[C@@H]2C[C@@H](O)CN2C(=O)[C@@H](c2cc(OCC3CCC(N4CCC(c5cccc6c5C(C)(C)c5nc(=O)c7c(Cl)cccc7n5-6)CC4)CC3)no2)C(C)C)cc1 (some centres unmarked) ?
## Result 70 to 90%

###

testTarget: SMARCA2 (Homo sapiens)
procedureDetails: HiBit assay in engineered HT1080 CRISPR knock-in cell, 6 hrs (B series), SMARCA2
Assay type: cell-based
measurementParameters: HT-1080, HT1080 CRISPR knock-in cells, 6 hrs incubation; read-out: SMARC A2 HT1080 HiBit Dmax (%)
Recorded Dmax for the following compounds

## Task Give the reported Dmax for Cc1ncsc1-c1ccc([C@H](C)NC(=O)[C@@H]2C[C@@H](O)CN2C(=O)[C@@H](NC(=O)[C@H]2CC[C@H](CN3CCC(c4ccc5c(c4)-n4c(nc(=O)c6c(Cl)cccc64)C5(C)C)CC3)CC2)C(C)(C)C)cc1 (system: SMARCA2 (Homo sapiens)).
## Result > 90%

## Task What measured Dmax is associated with Cc1ncsc1-c1ccc([C@H](C)NC(=O)[C@@H]2C[C@@H](O)CN2C(=O)[C@@H](c2cc(OCCCn3cc(-c4ccc5c(c4)C(C)(C)c4nc(=O)c6c(Cl)cccc6n4-5)cn3)no2)C(C)C)cc1 on SMARCA2 (Homo sapiens)?
## Result 50 to 69%

## Task Short answer please: Dmax, SMARCA2 (Homo sapiens), entry CNC(=O)[C@@H]1C[C@@H](O)CN1C(=O)[C@H](C(C)C)n1cc([C@H]2CC[C@H](CN3CCC(c4ccc5c(c4)-n4c(nc(=O)c6c(Cl)cccc64)C5(C)C)CC3)CC2)nn1
## Result 50 to 69%

## Task Give recorded Dmax with SMARCA2 (Homo sapiens) for the following compound: CC(C)C(C(=O)N1C[C@H](O)C[C@H]1C(=O)N[C@@H](C)c1ccc(-c2ncnn2C)cc1)c1cc(OCCN2CCC(c3ccc4c(c3)C(C)(C)c3nc(=O)c5c(Cl)cccc5n3-4)CC2)no1 (stereo partly shown)
## Result < 50%

###

testTarget: SMARCA2 (Homo sapiens)
procedureDetails: HiBit assay in engineered HT1080 CRISPR knock-in cell, 6 hrs (B series), SMARCA2
Type: cell-based
measurementParameters: HT1080 CRISPR knock-in cells, 6 hrs incubation; read-out: SMARC A2 HT1080 HiBit DC50
Description: The HiBit assay was performed using engineered HT1080 CRISPR knock-in cell utilizing the Nano-Glo HiBiT Lytic Detection System from Promega, Cat #N3040. Compounds were transferred, 25 nL DMSO or test compounds (final DMSO @ 0.1%) to intermediate plates (Corning3570) using ECHO550. […] After briefly centrifugation (2000 rpm 1 mins), plate was read on Envision (Ultrasensitive luminescence model).
outcomeMeasure: DC50

Illustrative cases are given below, each with its answer.
compound	testResult
Cc1cc(C(C(=O)N2C[C@H](O)C[C@H]2C(=O)N[C@@H](CCN2CCC(c3cccc4c3C(C)(C)c3nc(=O)c5c(Cl)cccc5n3-4)CC2)c2ccc(-c3scnc3C)cc2)C(C)C)on1 (some centres unmarked) [Compound B166]	100 to 500 nM
Cc1ncsc1-c1ccc([C@H](C)NC(=O)[C@@H]2C[C@@H](O)CN2C(=O)[C@@H](NC(=O)CCCCn2cc(-c3ccc4c(c3)-n3c(nc(=O)c5c(Cl)cccc53)C4(C)C)cn2)C(C)(C)C)cc1	100 to 500 nM
Cc1ncsc1-c1ccc(C(CN2CCOCC2)NC(=O)[C@@H]2C[C@@H](O)CN2C(=O)[C@@H](c2cc(O[C@H]3CC[C@H](CN4CCN(c5ccc6c(c5)-n5c(nc(=O)c7c(Cl)cccc75)C6(C)C)CC4)CC3)no2)C(C)C)cc1 (some centres unmarked)	< 100 nM
Cc1ncsc1-c1ccc([C@H](C)NC(=O)[C@@H]2C[C@@H](O)CN2C(=O)[C@H](C(C)C)n2cc(C3CCN(CCCN4CCC(c5ccc6c(c5)-n5c(nc(=O)c7c(Cl)cccc75)C6(C)C)CC4)CC3)nn2)cc1	< 100 nM
Cc1ncsc1-c1ccc(C2(NC(=O)[C@@H]3C[C@@H](O)CN3C(=O)[C@@H](n3cc([C@H]4CC[C@H](CN5CCC(c6ccc7c(c6)-n6c(nc(=O)c8c(Cl)cccc86)C7(C)C)CC5)CC4)nn3)C(C)(C)C)CNC2)cc1	100 to 500 nM

## Task # get_value(readout='DC50', item= Cc1ncsc1-c1ccc([C@H](C)NC(=O)[C@@H]2C[C@@H](O)CN2C(=O)[C@@H](n2cc(C3CC4(C3)CC(N3CCC(c5ccc6c(c5)-n5c(nc(=O)c7c(Cl)cccc75)C6(C)C)CC3)C4)nn2)C(C)(C)C)cc1 (some centres unmarked) )
## Result < 100 nM

## Task Looking for the measured DC50 of Cc1ncsc1-c1ccc([C@H](CC(=O)NCC2CCC(N3CCC(c4ccc5c(c4)-n4c(nc(=O)c6c(Cl)cccc64)C5(C)C)CC3)CC2)NC(=O)[C@@H]2C[C@@H](O)CN2C(=O)[C@@H](NC(=O)C2(F)CC2)C(C)(C)C)cc1 (some centres unmarked) [Compound B53] , can you help?
## Result 100 to 500 nM

## Task Query (compound): Cc1ncsc1-c1ccc([C@H](C)NC(=O)[C@@H]2C[C@@H](O)CN2C(=O)[C@@H](NC(=O)[C@H]2CC[C@H](Cn3cc(-c4ccc5c(c4)C(C)(C)c4nc(=O)c6c(Cl)cccc6n4-5)cn3)CC2)C(C)(C)C)cc1 ; field requested: DC50
## Result < 100 nM

## Task What value of DC50 has been reported for the following compound? Cc1ncsc1-c1ccc([C@H](C)NC(=O)[C@@H]2C[C@@H](O)CN2C(=O)[C@@H](n2cc([C@H]3CC[C@H](CN4CCC(c5ccc6c(c5)-n5c(nc(=O)c7c(Cl)cccc75)C6(C)C)CC4)CC3)nn2)C(C)(C)C)cc1
## Result < 100 nM

## Task // DC50 lookup, key: Cc1ncsc1-c1ccc([C@H](C)NC(=O)[C@@H]2C[C@@H](O)CN2C(=O)[C@H](C(C)C)n2cc(C3CCN(CCN4CCC(c5ccc6c(c5)-n5c(nc(=O)c7c(Cl)cccc75)C6(C)C)CC4)CC3)nn2)cc1
## Result < 100 nM

## Task Any idea what DC50 was measured for Cc1ncsc1-c1ccc([C@H](C)NC(=O)[C@@H]2C[C@@H](O)CN2C(=O)[C@H](C(C)C)n2cc(CN3CCC(c4ccc5c(c4)C(C)(C)c4nc(=O)c6c(Cl)cccc6n4-5)CC3)nn2)cc1 ?
## Result < 100 nM

## Task Data request, read-out DC50, for Cc1ncsc1-c1ccc([C@H](C)NC(=O)[C@@H]2C[C@@H](O)CN2C(=O)[C@@H](c2cc(OCCn3cc(-c4ccc5c(c4)C(C)(C)c4nc(=O)c6c(Cl)cccc6n4-5)cn3)no2)C(C)C)cc1
## Result < 100 nM

## Task Value lookup for DC50; key = Cc1ncsc1-c1ccc([C@H](C)NC(=O)[C@@H]2C[C@@H](O)CN2C(=O)[C@@H](NC(=O)C2CC(N3CCC(c4ccc5c(c4)C(C)(C)c4nc(=O)c6c(Cl)cccc6n4-5)CC3)C2)C(C)(C)C)cc1 (some centres unmarked) [Compound B13]
## Result < 100 nM

## Task Which DC50 is reported for this compound? Cc1ncsc1-c1ccc([C@H](C)NC(=O)[C@@H]2C[C@@H](O)CN2C(=O)[C@@H](c2cc(OC3CCC(Cn4cc(-c5ccc6c(c5)-n5c(nc(=O)c7c(Cl)cccc75)C6(C)C)cn4)CC3)no2)C(C)C)cc1 (some centres unmarked) [Compound B95]
## Result 100 to 500 nM

Data origin, for the record: patent US20260092071A1
